Ref: patent US8404729B2

In this section we review reported IC50 values for a set of molecules.
biological target: 5-HT2C receptors (Sus scrofa, UniProt K7GSR7); construct: the tissue used is the choroid plexus of the pig; from tissue; host or cells: pig choroid plexus; assay: In vitro binding affinity for 5-HT2C receptor (3H-mesulergine radioligand binding); conditions: choroid plexus of the pig, read-out: 5-HT2C (pIC50) (converted)
Sequence (K7GSR7 1-457): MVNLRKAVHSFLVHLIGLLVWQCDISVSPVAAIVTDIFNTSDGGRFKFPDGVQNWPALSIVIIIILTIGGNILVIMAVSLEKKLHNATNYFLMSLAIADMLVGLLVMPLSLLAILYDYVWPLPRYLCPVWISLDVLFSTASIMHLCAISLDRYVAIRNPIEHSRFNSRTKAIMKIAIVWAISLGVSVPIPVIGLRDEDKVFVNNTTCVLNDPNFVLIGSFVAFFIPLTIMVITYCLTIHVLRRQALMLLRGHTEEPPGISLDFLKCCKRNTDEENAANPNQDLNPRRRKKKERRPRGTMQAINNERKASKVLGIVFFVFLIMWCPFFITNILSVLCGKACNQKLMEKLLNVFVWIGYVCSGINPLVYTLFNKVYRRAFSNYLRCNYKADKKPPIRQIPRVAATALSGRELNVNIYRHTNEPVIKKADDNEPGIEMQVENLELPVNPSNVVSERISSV

>  <molecule>
c1ccc2c(c1)Sc1sccc1[C@H]1O[C@@H](CN3CCC4(CC3)OCCO4)C[C@H]21 (relative stereo)

>  <target>
5-HT2C receptors (Sus scrofa, UniProt K7GSR7)

>  <observed>
100 nM

$$$$

Problem: # IC50 lookup, item CN(C)C[C@H]1C[C@@H]2c3ccccc3Sc3sc(CO)cc3[C@H]2O1 (racemic)
Result: 20 nM

Problem: Please report the recorded IC50 for CN(CCO)C[C@H]1C[C@@H]2c3ccccc3Sc3sccc3[C@H]2O1 (relative stereo) .
Result: 39.8 nM

----------
biological target: 5-HT2C receptors (Sus scrofa); construct: the tissue used is the choroid plexus of the pig; from tissue; host or cells: pig choroid plexus; test: In vitro binding affinity for 5-HT2C receptor (3H-mesulergine radioligand binding); conditions: choroid plexus of the pig, read-out: 5-HT2C (pIC50) (converted)
Overview of recorded IC50 for various compounds
Report the value in nM with no unit label.

Guide cases for IC50, answers given:
>  <compound>
CNCC1CC2c3ccccc3N(Cc3ccccc3)c3ncccc3C2O1 (stereo not drawn) [Compound 36]

>  <target>
5-HT2C receptors (Sus scrofa)

>  <observed>
631

$$$$
>  <compound>
OC1CCN(C[C@H]2C[C@H]3c4ccccc4Sc4sccc4[C@@H]3O2)C1 (relative stereo)

>  <target>
5-HT2C receptors (Sus scrofa)

>  <observed>
3.98

$$$$
>  <compound>
c1ccc2c(c1)Sc1sccc1[C@@H]1O[C@@H](CN3CCC4(CC3)OCCO4)C[C@@H]21 (relative stereo)

>  <target>
5-HT2C receptors (Sus scrofa)

>  <observed>
100

$$$$
>  <compound>
CNCC1CC2c3ccccc3Sc3sccc3C2O1 (single isomer, unassigned)

>  <target>
5-HT2C receptors (Sus scrofa)

>  <observed>
27.5

$$$$
>  <compound>
CN(C)C1CCN(C[C@H]2C[C@H]3c4ccccc4Sc4sccc4[C@@H]3O2)C1 (relative stereo)

>  <target>
5-HT2C receptors (Sus scrofa)

>  <observed>
251

$$$$

Problem: Consider the compound CCOC(=O)c1cc2c(s1)Sc1ccccc1C1CC(CN(C)C)OC21 (stereo not drawn) and give its measured IC50.
Result: 316

Problem: Quick check: IC50 of OCCN1CCN(C[C@H]2C[C@@H]3c4ccccc4Sc4sccc4[C@H]3O2)CC1 (relative stereo) ?
Result: 251

Problem: Name the reported IC50 value associated with the compound CNC[C@H]1C[C@@H]2c3ccccc3Sc3sccc3[C@H]2O1 (racemic)
Result: 50.1

Problem: Tell me the measured IC50 of `CN(C)C[C@@H]1C[C@@H]2c3ccccc3Sc3sccc3[C@H]2O1` , please.
Result: 7.94

----------
target: 5-HT2A receptors (Rattus norvegicus); construct: the tissue used is the frontal cortex of the rat; from tissue; host or cells: rat frontal cortex; experiment: In vitro binding affinity for 5-HT2A receptor (3H-ketanserin radioligand binding); conditions: frontal cortex of the rat, read-out: 5-HT2A (pIC50) (converted)
Sequence (P14842 whole entry): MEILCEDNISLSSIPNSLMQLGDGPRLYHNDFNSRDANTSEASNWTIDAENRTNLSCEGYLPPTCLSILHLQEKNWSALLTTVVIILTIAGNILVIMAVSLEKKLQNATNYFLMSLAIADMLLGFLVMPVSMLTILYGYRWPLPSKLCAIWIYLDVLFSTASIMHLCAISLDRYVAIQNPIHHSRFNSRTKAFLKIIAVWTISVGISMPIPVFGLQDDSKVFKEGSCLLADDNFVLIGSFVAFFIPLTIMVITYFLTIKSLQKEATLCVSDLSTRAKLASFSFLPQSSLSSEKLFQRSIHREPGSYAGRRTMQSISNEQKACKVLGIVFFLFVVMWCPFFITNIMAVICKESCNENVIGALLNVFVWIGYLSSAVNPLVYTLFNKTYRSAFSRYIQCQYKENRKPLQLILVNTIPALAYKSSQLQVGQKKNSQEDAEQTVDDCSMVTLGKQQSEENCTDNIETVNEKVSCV
Parameter: IC50. Scope: all listed entries.
The figure you give is taken to be in nM; do not add the unit.

Solved cases below.
>  <compound>
OC1CCN(C[C@H]2C[C@@H]3c4ccccc4Sc4sccc4[C@H]3O2)C1 (relative stereo)

>  <unit_of_measurement>
nM

>  <IC50>
20

$$$$
>  <compound>
CNCC1CC2c3ccccc3Cc3sccc3C2O1 (stereo not drawn) [Compound 6]

>  <unit_of_measurement>
nM

>  <IC50>
39.8

$$$$

# input for lookup
Problem: GET /values?readout=IC50&item= OCCN1CCN(C[C@H]2C[C@H]3c4ccccc4Sc4sccc4[C@@H]3O2)CC1 (relative stereo)
Result: 12.6
